Biological target: Human renin (Homo sapiens)
Construct: taking the active type (67-406); made in house; host or cells: FreeStyle 293-F cells (transient expression of pcDNA3.1(+)/hREN)
Sequence (P00797 67-406): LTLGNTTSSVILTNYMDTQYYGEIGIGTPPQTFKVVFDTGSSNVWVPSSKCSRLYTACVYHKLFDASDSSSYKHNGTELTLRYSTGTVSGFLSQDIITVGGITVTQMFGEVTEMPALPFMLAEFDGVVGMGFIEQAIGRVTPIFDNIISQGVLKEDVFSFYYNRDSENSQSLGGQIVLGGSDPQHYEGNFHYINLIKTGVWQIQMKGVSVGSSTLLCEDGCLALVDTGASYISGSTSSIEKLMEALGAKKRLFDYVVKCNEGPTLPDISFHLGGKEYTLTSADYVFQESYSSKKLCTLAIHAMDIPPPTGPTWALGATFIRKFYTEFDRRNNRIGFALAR
Assay: Measurement of renin inhibition value (human renin, FITC substrate peptide, capillary electrophoresis)
Type: biochemical
Conditions: test compound 10 μM; active type renin (67-406); pH 6.0, 37° C., 30 min; read-out: Human Renin Inhibitory Activity: inhibitory activity (%) at 10 μM
Reported Metric: inhibition at 10 µM (%)

• O=C(c1ncn(-c2cccc(N3CCOCC3)c2)c1-c1ccccc1)N1CCNC[C@H]1Cc1ccccc1 [Example 56] = 103
• COc1cccc(-n2cnc(C(=O)N3CCNC[C@H]3Cc3ccccc3)c2-c2ccccc2)c1OC [Example 57] = 108
• Cc1cc(C(=O)N2CCNC[C@H]2Cc2ccccc2)c(-c2ccccc2)n1-c1cccc(N2CCOCC2)c1 [Example 105] = 104
• O=C(C[C@H](CCc1ccccc1)n1cnc(C(=O)N2CCNC[C@H]2Cc2ccccc2)c1-c1ccccc1)N1CCOCC1 [Example 478] = 101
• COc1nc(C(=O)N2CCNC[C@H]2Cc2ccccc2)c(-c2ccccc2)n1-c1ccccc1 [Example 475] = 99
• O=C(c1ncn(C2Cc3ccccc3C2)c1-c1ccccc1)N1CCNC[C@H]1Cc1ccccc1 [Example 73] = 101
• O=C(O)c1ccc(C[C@@H]2CNCCN2C(=O)c2ncn(-c3cccc(N4CCOCC4)c3)c2-c2ccccc2)cc1 [Example 161] = 101

---

Molecular target: Human renin (Homo sapiens, UniProt P00797)
Construct: taking the active type (67-406); made in house; host or cells: FreeStyle 293-F cells (transient expression of pcDNA3.1(+)/hREN)
Sequence (P00797 67-406): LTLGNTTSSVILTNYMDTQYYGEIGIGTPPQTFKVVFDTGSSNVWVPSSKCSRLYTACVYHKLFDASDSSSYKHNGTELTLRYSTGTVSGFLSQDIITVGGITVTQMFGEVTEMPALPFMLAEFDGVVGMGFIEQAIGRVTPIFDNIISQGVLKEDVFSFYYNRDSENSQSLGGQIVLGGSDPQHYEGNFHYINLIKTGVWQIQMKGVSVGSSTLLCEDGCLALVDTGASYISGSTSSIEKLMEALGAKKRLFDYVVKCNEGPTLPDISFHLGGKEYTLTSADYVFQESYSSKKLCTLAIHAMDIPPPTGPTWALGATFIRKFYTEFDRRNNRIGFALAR
Assay: Measurement of renin inhibition value (human renin, FITC substrate peptide, capillary electrophoresis)
Assay type: biochemical
Details: test compound 10 μM; active type renin (67-406); pH 6.0, 37° C., 30 min; read-out: Human Renin Inhibitory Activity: inhibitory activity (%) at 10 μM
Reported Metric: inhibition at 10 µM (%)

* CS(=O)(=O)c1ccc(COC[C@@H]2CNCCN2C(=O)c2ncn(-c3cccc(N4CCOCC4)c3)c2-c2ccccc2)cc1 [Example 472] | 102
* COc1cccc(-n2c(C)cc(C(=O)N3CCNC[C@H]3Cc3ccccc3)c2-c2ccccc2)c1OC [Example 43] | 106
* CCCCNc1ccccc1-n1ccc(C(=O)N2CCNCC2Cc2ccccc2)c1-c1ccccc1 (racemic) [Example 99] | 107
* O=C(c1ncn(C2CCCN(S(=O)(=O)c3ccccc3)C2)c1-c1ccccc1)N1CCNC[C@H]1Cc1ccccc1 (some centres unmarked) [Example 476] | 99
* COc1ccc(S(=O)(=O)N2CCCC(n3cnc(C(=O)N4CCNC[C@H]4Cc4ccccc4)c3-c3ccccc3)C2)cn1 (some centres unmarked) [Example 477] | 104
